Values compiled from patent US20080107658A1.

# system-tested: rat nerve growth factor (beta-NGF) (rat, UniProt P25427 122-241)
# Sequence (P25427 122-241): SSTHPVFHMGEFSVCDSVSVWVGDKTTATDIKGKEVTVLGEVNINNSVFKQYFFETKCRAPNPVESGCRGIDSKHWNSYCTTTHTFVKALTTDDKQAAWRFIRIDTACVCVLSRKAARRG
# protocol-summary: cell-based or functional assay
recorded-metric: IC50, TF-1 cell proliferation (pM)
Answers are plain numbers, in pM.

Dear reader, for each entry below, please note its IC50, TF-1 cell proliferation.
1. 1252A5 IgG4 (antibody, V domains shown, tested as whole human IgG4; also called germlined 1133C11) VH: QVQLVQSGAEVKKPGSSVKVSCKASGGTFSTYGISWVRQAPGQGLEWMGGIIPIFDTGNSAQSFQGRVTITADESTSTAYMELSSLRSEDTAVYYCARSSRIYDLNPSLTAYYDMDVWGQGTMVTVSS VL: QSVLTQPPSVSAAPGQKVTISCSGSSSNIGNNYVSWYQQLPGTAPKLLIYDNNKRPSGIPDRFSGSKSGTSATLGITGLQTGDEADYYCGTWDSSLSAWVFGGGTKLTVL
2. G1152H5 human IgG4 (antibody, V domains shown, tested as whole human IgG4; also called germlined 1152H5) VH: QVQLVQSGAEVKKPGSSVKVSCKASGGTFSTYGISWVRQAPGQGLEWMGGIIPIFDTGNSAQSFQGRVTITADESTSTAYMELSSLRSEDTAVYYCARSSRIYDMISSLQPYYDMDVWGQGTMVTVSS VL: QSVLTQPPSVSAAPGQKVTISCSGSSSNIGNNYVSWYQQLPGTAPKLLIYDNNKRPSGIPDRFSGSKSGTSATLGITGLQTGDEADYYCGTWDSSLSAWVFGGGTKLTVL
3. 1152H5 human IgG4 (antibody, V domains shown) VH: EVQLVQSGAEVKKPGSSVKVSCKASGGTFSTYGISWVRQAPGQGLVWIGGIIPIFDTGNSAQSFQGRVTITADESTSTAYMEVSSLRSDDTAVYYCASSSRIYDMISSLQPYYDMDVWGQGTMVTVSS VL: QAVLTQPSSVSTPPGQKATISCSGSSSNIGNNYVSWYQQLPGTAPKLLIYDNNKRPSGIPDRFSGSKSGTSATLGITGLQTGDEADYYCGTWDSSLSAWVFGGGTKLTVL
4. 1133C11 human IgG4 (antibody, V domains shown) VH: EVQLVQSGAEVKKPGSSVKVSCKASGGTFSTYGISWVRQAPGQGLEWIGGIIPIFDTGNSAQSFQGRVTITADESTSTAYMEVSSLRSDDTAVYYCASSSRIYDLNPSLTAYYDMDVWGQGTMVTVSS VL: QAVLTQPSSVSTPPGQKVTISCSGSSSNIGNNYVSWYQQLPGTAPKLLIYDNNKRPSGIPDRFSGSKSGTSATLGITGLQTGDEADYYCGTWDSSLSAWVFGGGTKLTVL

result:
1: 720; 2: 1440; 3: 80; 4: 120
